Reported z-score values follow for various molecules
Experiment: osmotic lysis modulators in infected erythrocytes, primary screen, PSAC antagonist project, cell-based, P. falciparum Indochina, OD700, 3 h (AID 1156)
Conditions: higher = more signal, called active from +8 up or from −8 down
Output: the number by itself.

# annotated cases, reported z-score shown
molecule: O=C1[C@@H]2[C@@H](CC(COc3ccccc3)=C3[C@@H](CCc4ccccc4)OB(O)C[C@@H]32)C(=O)N1Cc1ccccc1
z-score: -0.791
//
molecule: C#C[C@@H](CC)O[Si](C#CCCCC#N)(C(C)C)C(C)C
z-score: 0.186
//
molecule: COc1ccc([Si](C)(C)[C@@H]2[C@@H](CCn3cc([C@H](O)c4ccccc4)nn3)O[C@]3(C(=O)N(c4ccccc4)c4ccccc43)[C@H]2C)cc1
z-score: 3.03
//
molecule: COC(=O)c1c2oc(c1C(=O)OC)C(=O)N1CCC[C@H]1Cn1nncc1CN(Cc1ccccc1)C(=O)N[C@H](CO)CC2
z-score: -0.418
//
molecule: COCCCNC(=O)[C@@H]1c2ccccc2C(=O)N(C2Cc3ccccc3C2)[C@H]1c1ccc(CO)cc1
z-score: 0.65
//
molecule: CC(CO)N1C(=O)[C@@H]2[C@H]3C(=O)OCC=C[C@H]3OC23C=CCN(c2ccc(Cl)cc2)C(=O)[C@@H]13 (stereo not given in full)
z-score: 0.639
//
molecule: CC1(C)C(=O)C(c2ccccc2)=C2CN3C(=O)N(CCc4ccccc4)C(=O)C3(Cc3ccc(C(F)(F)F)cc3)C=C21 (stereo not given)
z-score: 0.482
//
molecule: Cc1ccc(S[C@]2(C(=O)NC(C)C)CC(=O)N(C(C)C)[C@@H]2c2ccc(CO)cc2I)cc1
z-score: 0.59

Find the recorded z-score belonging to O=C1O[C@H](c2ccccc2)[C@H](c2ccccc2)N2[C@H]1[C@@H](C(=O)Nc1nc3ccccc3s1)[C@]1(C(=O)Nc3ccc(C#CC4=CCCCC4)cc31)[C@H]2c1ccc(O)cc1 and report it.
-0.715

Moving on to CCOC(=O)C[C@H]1[C@H](OC(=O)c2ccccc2-c2ccccc2)[C@@H](NC(=O)c2ccccc2)c2cc(OCCCO)ccc2N1C(=O)c1ccccc1
1.11

Moving on to COCCOC(=O)N1C(=O)[C@@]2(c3cc(C#Cc4ccc(OC)cc4)ccc31)[C@H](C(=O)NC[C@H](O)c1ccccc1)[C@H]1C(=O)O[C@H](c3ccccc3)[C@H](c3ccccc3)N1[C@@H]2c1ccc(OCCO)cc1
-0.191

Moving on to [N-]=[N+]=NCc1ccccc1[C@@H]1OC(c2ccc(OCCCO)cc2)=N[C@]1(Cc1ccccc1N=[N+]=[N-])C(=O)NCCN1CCOCC1
1.46

Moving on to COC(=O)C1=CC(CCCO)=CC(C)N(Cc2cccc(OC(F)(F)F)c2)C=C1C(=O)OC (stereo not given)
0.983

Moving on to [N-]=[N+]=Nc1ccccc1C[C@]1(C(=O)O)N=C(c2ccc(OCCCO)cc2)O[C@H]1c1ccccc1
1.35

Moving on to COCC(=C=CC[C@@H](O)c1ccc(OCCO)cc1)CCO
1.32

Origin of measurements: PubChem BioAssay
